# experimental-details: Solubility of LAC-34 in binary mixtures of solvent and water (anti-solvent)
# Format: physicochemical
# condition-label: DMSO with 90% water, aqueous with cosolvent or surfactant or cyclodextrin; DMSO, 90% water; read-out: Solubility of LAC-34 in mixture of solvent and water
# Protocol: Due to the very high solubility of LAC-34 free base in numerous volatile solvents, it was determined to be necessary to find and add an anti-solvent in order to reach saturation of the solutions of LAC-34. The efficacy of water is an anti-solvent for LAC-34 free base was investigated in the present studies.
assay-metric: solubility (µg/mL)
Please respond with the number in µg/mL and leave the unit unwritten.

Q: Could you share which solubility value was measured for c1ccc(N(CCC2CCCCN2)C2Cc3ccccc3C2)cc1 (racemic) [LAC-34] ?
Ans: 450
